The entries below come with measured Dmax values attached.
# TARGET_UNDER_TEST: IRAK-4 (Homo sapiens)
# METHOD_SUMMARY: IRAK-4 ELISA, OCI-Ly10 degradation
# Assay type: cell-based
# Set-up: endogenous in cells
# CONDITION_SUMMARY: OCI-Ly10, OCI-Ly10 cells, treated overnight
READOUT_KIND: Dmax

COMPOUND	TARGET_UNDER_TEST	READOUT_KIND	REPORTED
O=C1CCC(N2C(=O)c3ccc(N4CCC(CN5CCC([C@H](F)Cn6cc7cc(NC(=O)c8cnn9cccnc89)c(OCC8CC8)cc7n6)CC5)CC4)cc3C2=O)C(=O)N1 (stereo partly drawn)	IRAK-4 (Homo sapiens)	Dmax	≥ 90%
O=C1CCC(N2C(=O)c3ccc(N4CC(COC[C@H](F)Cn5cc6cc(NC(=O)c7cnn8cccnc78)c(OCC7CC7)cc6n5)C4)cc3C2=O)C(=O)N1 (stereo partly drawn)	IRAK-4 (Homo sapiens)	Dmax	80 to 90%
O=C1CCC(N2C(=O)c3ccc(N4CC(F)(CN5CCC(n6cc7cc(NC(=O)c8cnn9cccnc89)c(OCC8CC8)cc7n6)CC5)C4)cc3C2=O)C(=O)N1 (stereo not drawn)	IRAK-4 (Homo sapiens)	Dmax	≥ 90%

====

# Test system: IL6
# METHOD_SUMMARY: R848 stimulated IL6 inhibition assay in PBMC
# Format: cell-based
# CONDITION_SUMMARY: PBMC; human PBMCs, R848 stimulation, compound overnight, IL6 by MSD after 24 hrs; read-out: R848 stim IL6 inhibition IC50
The entries below come with measured IC50 values attached.

COMPOUND	IC50
CC(C)Oc1cc2nn([C@H]3CC[C@H](OC4CN(c5ccc6c(c5)CN(C5CCC(=O)NC5=O)C6=O)C4)CC3)cc2cc1NC(=O)c1cnn2cccnc12 (some centres unmarked)	< 0.01 µM
O=C1CCC(N2Cc3c(ccc(N4CCC(CN5CCC(N6Cc7cc(NC(=O)c8cnn9cccnc89)c(N8CCN(CC(F)F)CC8)cc7C6=O)CC5)CC4)c3F)C2=O)C(=O)N1 (centres unmarked)	0.01 to 0.05 µM
CC(C)Oc1cc2c(cc1NC(=O)c1cnn3cccnc13)CN(C[C@@H](F)C1CN(CC3CCN(c4ccc5c(c4)C(=O)N(C4CCC(=O)NC4=O)C5=O)CC3)C1)C2=O (some centres unmarked)	0.01 to 0.05 µM
O=C1CCC(N2C(=O)c3ccc(N4CCC(CN5CCC(n6cc7cc(NC(=O)c8cnn9cccnc89)c(OCC8CC8)cc7n6)CC5)CC4)cc3C2=O)C(=O)N1 (centres unmarked)	0.01 to 0.05 µM
O=C1CCC(N2C(=O)c3ccc(C4CCN(C[C@H]5CC[C@H](n6cc7cc(NC(=O)c8cnn9cccnc89)c(OCC8CC8)cc7n6)CC5)CC4)cc3C2=O)C(=O)N1 (some centres unmarked)	0.01 to 0.05 µM
CC(C)Oc1cc2c(cc1NC(=O)c1cnn3cccnc13)CN(C1CCN(C(C)(C)C3CCN(c4ccc5c(c4)C(=O)N(C4CCC(=O)NC4=O)C5=O)CC3)CC1)C2=O (centres unmarked)	0.01 to 0.05 µM
O=C1CCC(N2Cc3ccc(N4CCN(C[C@H]5CC[C@H](n6cc7cc(NC(=O)c8cnn9cccnc89)c(OCC(F)F)cc7n6)CC5)CC4)cc3C2=O)C(=O)N1 (some centres unmarked)	< 0.01 µM
O=C1CCC(N2Cc3c(F)cc(N4CC(F)(CN5CCC(n6cc7cc(NC(=O)c8cnn9cccnc89)c(OCC8CC8)cc7n6)CC5)C4)cc3C2=O)C(=O)N1 (centres unmarked)	0.01 to 0.05 µM
CN(C1CN(c2ccc3c(c2F)CN(C2CCC(=O)NC2=O)C3=O)C1)[C@H]1CC[C@H](n2cc3cc(NC(=O)c4cnn5cccnc45)c(OCC4CC4)cc3n2)CC1 (some centres unmarked)	< 0.01 µM
O=C1CCC(N2Cc3cc(N4CCC(CN5CCC(N6Cc7cc(NC(=O)c8cnn9cccnc89)c(N8CCC(N9CCC9)CC8)cc7C6=O)CC5)CC4)ccc3C2=O)C(=O)N1 (centres unmarked)	0.01 to 0.05 µM
CC(C)Oc1cc2c(cc1NC(=O)c1cnn3cccnc13)CN([C@H]1CC[C@H](N(C)C3CN(c4ccc5c(c4F)CN(C4CCC(=O)NC4=O)C5=O)C3)CC1)C2=O (some centres unmarked)	< 0.01 µM

====

# Tested on: IL6
# METHOD_SUMMARY: IL-1β stimulated IL6 inhibition assay in PBMC
# Type: cell-based
# CONDITION_SUMMARY: human PBMCs, IL-1β stimulation, compound overnight, IL6 by MSD after 24 hrs; read-out: IL1β stim IL6 inhibition IC50
pIC50: −log10 of the molar value.
The entries below come with measured pIC50 values attached.
READOUT_KIND: pIC50

COMPOUND	REPORTED
O=C1CCC(N2C(=O)c3ccc(N4CCC(CN5CCC(N6Cc7cc(NC(=O)c8cnn9cccnc89)c(N8CCOCC8)cc7C6=O)CC5)CC4)cc3C2=O)C(=O)N1 (centres unmarked) [Example 32]	7.30 to 8.00
O=C1CCC(N2C(=O)c3ccc(N4CCC(CN5CCC(N6Cc7cc(NC(=O)c8cnn9cccnc89)c(N8CCOCC8)cc7C6=O)CC5)CC4)cc3C2=O)C(=O)N1 (centres unmarked) [Example 31]	≤ 7.00

====

# TARGET_UNDER_TEST: IRAK-4 (Homo sapiens, UniProt Q9NWZ3)
# Sequence (Q9NWZ3 whole entry): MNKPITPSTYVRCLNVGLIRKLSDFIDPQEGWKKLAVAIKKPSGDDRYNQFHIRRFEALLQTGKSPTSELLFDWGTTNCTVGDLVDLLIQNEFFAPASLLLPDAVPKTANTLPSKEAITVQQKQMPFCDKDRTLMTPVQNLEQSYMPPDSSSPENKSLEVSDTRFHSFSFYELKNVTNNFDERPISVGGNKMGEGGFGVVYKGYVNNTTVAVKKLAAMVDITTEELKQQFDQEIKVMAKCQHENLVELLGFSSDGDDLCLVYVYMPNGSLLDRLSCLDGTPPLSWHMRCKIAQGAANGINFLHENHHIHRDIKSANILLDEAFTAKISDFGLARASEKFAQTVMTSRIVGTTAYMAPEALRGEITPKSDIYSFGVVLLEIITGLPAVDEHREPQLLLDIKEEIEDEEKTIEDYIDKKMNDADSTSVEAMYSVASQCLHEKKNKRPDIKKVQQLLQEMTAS
# METHOD_SUMMARY: IRAK-4 ELISA, PBMC degradation
# Type: cell-based
# Design: endogenous in cells; host or cells: PBMC
# CONDITION_SUMMARY: treated overnight
The entries below come with measured DC50 values attached.
READOUT_KIND: DC50

MOLECULE	REPORTED
O=C1CCC(N2C(=O)c3ccc(N4CC(N(CC(F)F)C5CCC(n6cc7cc(NC(=O)c8cnn9cccnc89)c(OCC8CC8)cc7n6)CC5)C4)cc3C2=O)C(=O)N1 (stereo not shown)	1 to 5 nM
O=C1CCC(N2C(=O)c3ccc(N4CCC(N5CCC(n6cc7cc(NC(=O)c8cnn9cccnc89)c(OCC8CC8)cc7n6)CC5)CC4)cc3C2=O)C(=O)N1 (stereo not shown)	< 1 nM
O=C1CCC(N2Cc3c(ccc(N4CC(F)(CN5CCC(n6cc7cc(NC(=O)c8cnn9cccnc89)c(OCC8CC8)cc7n6)CC5)C4)c3F)C2=O)C(=O)N1 (stereo not shown)	1 to 5 nM
CC(C)Oc1cc2c(cc1NC(=O)c1cnn3cccnc13)CN([C@H]1CC[C@H](OC3CCN(c4ccc5c(c4)C(=O)N(C4CCC(=O)NC4=O)C5=O)CC3)CC1)C2=O (stereo partly shown)	1 to 5 nM
CN(C1CCC(N2Cc3cc(NC(=O)c4cnn5cccnc45)c(OC4CC4)cc3C2=O)CC1)C1CCN(c2ccc3c(c2)C(=O)N(C2CCC(=O)NC2=O)C3=O)CC1 (stereo not shown)	< 1 nM
CN(C1CCC(n2cc3cc(NC(=O)c4cnn5cccnc45)c(OCC4CC4)cc3n2)CC1)C1CCN(c2ccc3c(c2)C(=O)N(C2CCC(=O)NC2=O)C3=O)CC1 (stereo not shown)	< 1 nM
COc1cc(N2CC(CN3CCC(N4Cc5cc(NC(=O)c6cnn7cccnc67)c(OC(C)C)cc5C4=O)CC3)C2)cc2c1C(=O)N(C1CCC(=O)NC1=O)C2=O (stereo not shown)	< 1 nM
CC(C)Oc1cc2c(cc1NC(=O)c1cnn3ccc(N4CCOCC4)nc13)CN(C1CCC(N(C)C3CN(c4ccc5c(c4)CN(C4CCC(=O)NC4=O)C5=O)C3)CC1)C2=O (stereo not shown)	5 to 10 nM
COc1cc2nn([C@H]3CC[C@H](OC4CN(c5ccc6c(c5)C(=O)N(C5CCC(=O)NC5=O)C6=O)C4)CC3)cc2cc1NC(=O)c1cnn2cccnc12 (stereo partly shown)	< 1 nM
O=C1CCC(NC(=O)c2ccc(N3CC(CN4CCC(n5cc6cc(NC(=O)c7cnn8cccnc78)c(OCC7CC7)cc6n5)CC4)C3)cc2F)C(=O)N1 (stereo not shown)	1 to 5 nM

====

# TARGET_UNDER_TEST: IRAK-4 (Homo sapiens, UniProt Q9NWZ3)
# METHOD_SUMMARY: IRAK-4 ELISA, OCI-Ly10 degradation
# Type: cell-based
# Design: endogenous in cells
# CONDITION_SUMMARY: OCI-Ly10 cells, treated overnight
# Protocol: Reagents: Human IRAK-4 Matched Antibody Pair Kit (Abcam ab218182) and ELISA Accessory Pack (Abcam ab210905). Cell Treatment and Lysis: 1. OCI-Ly10: 200,000 cells are seeded at 1×10^6/ml in 96-well U-bottom plates 200 ul per well, treated with compound the same day. Incubate overnight. 2. PBMC: 800,000 cells are seeded at 2×10^6/ml in 96-well U-bottom deep-well plates, 400 ul per well, treated with compound the same day. […] Cell lysate is collected and analyzed by ELISA for IRAK-4 levels.
READOUT_KIND: DC50

COMPOUND	TARGET_UNDER_TEST	REPORTED
O=C1CCC(N2Cc3cc(N4CC(CN5CCC(n6cc7cc(NC(=O)c8cnn9cccnc89)c(C8CC8)cc7n6)CC5)C4)ccc3C2=O)C(=O)N1 (stereo not shown)	IRAK-4 (Homo sapiens, UniProt Q9NWZ3)	< 10 nM
COc1cc2nn(C3CCN(CCc4ccc5c(c4)C(=O)N(C4CCC(=O)NC4=O)C5=O)CC3)cc2cc1NC(=O)c1cnn2cccnc12 (stereo not shown)	IRAK-4 (Homo sapiens, UniProt Q9NWZ3)	≥ 100 nM
COc1c(N2CC(CN3CCC(n4cc5cc(NC(=O)c6cnn7cccnc67)c(OCC6CC6)cc5n4)CC3)C2)ccc2c1C(=O)N(C1CCC(=O)NC1=O)C2=O (stereo not shown)	IRAK-4 (Homo sapiens, UniProt Q9NWZ3)	< 10 nM
CC(C)Oc1cc2c(cc1NC(=O)c1cnn3cccnc13)CN(C1CCN(CC3(F)CCN(c4ccc5c(c4)C(=O)N(C4CCC(=O)NC4=O)C5=O)CC3)CC1)C2=O (stereo not shown)	IRAK-4 (Homo sapiens, UniProt Q9NWZ3)	10 to 50 nM
O=C1CCC(N2C(=O)c3ccc(N4CCC(CN5CCC(n6cc7cc(NC(=O)c8cnn9cccnc89)c(OCC8CC8)cc7n6)CC5)CC4)cc3C2=O)C(=O)N1 (stereo not shown)	IRAK-4 (Homo sapiens, UniProt Q9NWZ3)	10 to 50 nM
O=C1CCC(N2Cc3cc(N4CC(CN5CCC(n6cc7cc(NC(=O)c8cnn9cccnc89)c(OCC8CC8)cc7n6)CC5)C4)ccc3C2=O)C(=O)N1 (stereo not shown)	IRAK-4 (Homo sapiens, UniProt Q9NWZ3)	< 10 nM
CC(C)(O)c1cc2nn(C3CCN(CC4CN(c5ccc6c(c5)C(=O)N(C5CCC(=O)NC5=O)C6=O)C4)CC3)cc2cc1NC(=O)c1cnn2cccnc12 (stereo not shown)	IRAK-4 (Homo sapiens, UniProt Q9NWZ3)	50 to 100 nM
COc1cc2nn([C@H]3CC[C@H](N(C)CC#Cc4ccc5c(c4)C(=O)N(C4CCC(=O)NC4=O)C5=O)CC3)cc2cc1NC(=O)c1cnn2cccnc12 (stereo partly shown) [Example 338]	IRAK-4 (Homo sapiens, UniProt Q9NWZ3)	< 10 nM
COc1cc2nn(C3CCN(CC4CN(c5ccc6c(c5)C(=O)N(C5CCC(=O)NC5=O)C6=O)C4)C3)cc2cc1NC(=O)c1cnn2cccnc12 (stereo not shown)	IRAK-4 (Homo sapiens, UniProt Q9NWZ3)	≥ 100 nM
COc1cc2nn(C3CCN(CC4CN(c5ccc(C(=O)NC6CCC(=O)NC6=O)c(F)c5)C4)CC3)cc2cc1NC(=O)c1cnn2cccnc12 (stereo not shown)	IRAK-4 (Homo sapiens, UniProt Q9NWZ3)	10 to 50 nM
CC1(CN2CCC(n3cc4cc(NC(=O)c5cnn6cccnc56)c(OCC5CC5)cc4n3)CC2)CN(c2ccc3c(c2)C(=O)N(C2CCC(=O)NC2=O)C3=O)C1 (stereo not shown)	IRAK-4 (Homo sapiens, UniProt Q9NWZ3)	10 to 50 nM
COc1cc2nn(C3CCN(CC4CCN(c5ccc(C(=O)NC6CCC(=O)NC6=O)c(F)c5)CC4)CC3)cc2cc1NC(=O)c1cnn2cccnc12 (stereo not shown)	IRAK-4 (Homo sapiens, UniProt Q9NWZ3)	10 to 50 nM
O=C1CCC(N2C(=O)c3ccc(N4CCC(F)(CN5CCC(n6cc7cc(NC(=O)c8cnn9cccnc89)c(OCC8CC8)cc7n6)CC5)CC4)cc3C2=O)C(=O)N1 (stereo not shown)	IRAK-4 (Homo sapiens, UniProt Q9NWZ3)	10 to 50 nM
COc1cc2nn([C@H]3CC[C@H](OC4CN(c5ccc6c(c5)C(=O)N(C5CCC(=O)NC5=O)C6=O)C4)CC3)cc2cc1NC(=O)c1cnn2cccnc12 (stereo partly shown)	IRAK-4 (Homo sapiens, UniProt Q9NWZ3)	< 10 nM
O=C1CCC(N2C(=O)c3ccc(OCCOCCN4CCC(n5cc6cc(NC(=O)c7cnn8cccnc78)c(OCC7CC7)cc6n5)CC4)cc3C2=O)C(=O)N1 (stereo not shown)	IRAK-4 (Homo sapiens, UniProt Q9NWZ3)	10 to 50 nM
O=C1CCC(N2C(=O)c3ccc(N4CCC(CN5CC[C@H](N6Cc7cc(NC(=O)c8cnn9cccnc89)c(N8CCOCC8)cc7C6=O)[C@@H](F)C5)CC4)cc3C2=O)C(=O)N1 (stereo partly shown)	IRAK-4 (Homo sapiens, UniProt Q9NWZ3)	10 to 50 nM
O=C1CCC(N2C(=O)c3ccc(N4CCC(CN5CCC(N6Cc7cc(NC(=O)c8cnn9cc(Cl)cnc89)c(N8CCOCC8)cc7C6=O)CC5)CC4)cc3C2=O)C(=O)N1 (stereo not shown)	IRAK-4 (Homo sapiens, UniProt Q9NWZ3)	10 to 50 nM
O=C1CCC(N2Cc3cc(N4CCC(CN5CCC(N6Cc7cc(NC(=O)c8cnn9cccnc89)c(N8CCC(N9CCC9)CC8)cc7C6=O)CC5)CC4)ccc3C2=O)C(=O)N1 (stereo not shown)	IRAK-4 (Homo sapiens, UniProt Q9NWZ3)	< 10 nM
COc1cc2nn([C@H]3CC[C@@H](N(C)C4CN(c5ccc6c(c5)C(=O)N(C5CCC(=O)NC5=O)C6=O)C4)CC3)cc2cc1NC(=O)c1cnn2cccnc12 (stereo partly shown)	IRAK-4 (Homo sapiens, UniProt Q9NWZ3)	≥ 100 nM
COc1cc2nn(C3CCN(CC4CN(c5ccc6c(c5)CN(C5CCC(=O)NC5=O)C6=O)C4)CC3)cc2cc1NC(=O)c1cnn2cccnc12 (stereo not shown)	IRAK-4 (Homo sapiens, UniProt Q9NWZ3)	< 10 nM
O=C1CCC(N2C(=O)c3ccc(N4CC(CN5CCC(n6cc7cc(CC(=O)c8cnn9cc(Cl)cnc89)c(OCC8CC8)cc7n6)CC5)C4)cc3C2=O)C(=O)N1 (stereo not shown)	IRAK-4 (Homo sapiens, UniProt Q9NWZ3)	10 to 50 nM
Cc1cnc2c(C(=O)Nc3cc4c(cc3OC(C)C)C(=O)N(C3CCN(CCc5ccc6c(c5)CN(C5CCC(=O)NC5=O)C6=O)CC3)C4)cnn2c1 (stereo not shown)	IRAK-4 (Homo sapiens, UniProt Q9NWZ3)	< 10 nM
